The following compounds are shown together with reported activity at 10 µM values.
target: dopamine receptors (Rattus norvegicus); construct: on hypophysis sinaptosomal rat membranes; from tissue; host or cells: rat hypophysis (pituitary), synaptosomal membranes; assay: Binding of (^3H)-spiroperidole to hypophysis membranes of rat; conditions: read-out: Product bound % ((^3H) spiroperidole binding to hypophysis membranes), (^3H) spiroperidole 2.10^-9 M (2 nM); test substance 10^-5 M
Measured Parameter: activity at 10 µM (%)

1. CCCCCCCCCCCCCC=CC(O)C(COC1OC(CO)C(O)C(O)C1O)NC(=O)C1CC2c3cccc4[nH]cc(c34)CC2N(C)C1 (stereo not shown) [Product 16, Dihydrolysergylpsychosine amide]
45
2. CCCCCCCCCCCCCC=CC(O)C(CO)NC(=O)[C@@H]1C=C2c3cccc4[nH]cc(c34)C[C@H]2N(C)C1 (stereo partly shown) [Product 2.2, Lysergylsphingosine-amide]
55
3. CN1C[C@H](C(=O)O)C=C2c3cccc4[nH]cc(c34)C[C@H]21 [lysergic acid]
90
4. CCCCCCCCCCCCCCCC(O)C(CO)NC(=O)C1CC2c3cccc4[nH]cc(c34)CC2N(C)C1 (stereo not shown) [Product 15, Dihydrolysergyldihydrosphingosine amide]
30
5. CCCCCCCCCCCCCC=CC(O)C(CO)NC(=O)C1CC2c3cccc4[nH]cc(c34)CC2N(C)C1 (stereo not shown) [Product 3, Dihydrolysergylsphingosine amide]
40
6. CN1C[C@H](C(=O)O)CC2c3cccc4[nH]cc(c34)C[C@H]21 (stereo partly shown) [dihydrolysergic acid]
95
7. CCCCCCCCCCCCC/C=C/[C@@H](O)[C@@H](N)CO [sphingosine]
100

---

The following compounds are shown together with reported activity at 100 µM values.
target: dopamine receptors (Rattus norvegicus, UniProt P61169); construct: on hypophysis sinaptosomal rat membranes; from tissue; host or cells: rat hypophysis (pituitary), synaptosomal membranes; experiment: Binding of (^3H)-spiroperidole to hypophysis membranes of rat; settings: read-out: Product bound % ((^3H) spiroperidole binding to hypophysis membranes), (^3H) spiroperidole 2.10^-9 M (2 nM); test substance 10^-4 M
Sequence (P61169 whole entry): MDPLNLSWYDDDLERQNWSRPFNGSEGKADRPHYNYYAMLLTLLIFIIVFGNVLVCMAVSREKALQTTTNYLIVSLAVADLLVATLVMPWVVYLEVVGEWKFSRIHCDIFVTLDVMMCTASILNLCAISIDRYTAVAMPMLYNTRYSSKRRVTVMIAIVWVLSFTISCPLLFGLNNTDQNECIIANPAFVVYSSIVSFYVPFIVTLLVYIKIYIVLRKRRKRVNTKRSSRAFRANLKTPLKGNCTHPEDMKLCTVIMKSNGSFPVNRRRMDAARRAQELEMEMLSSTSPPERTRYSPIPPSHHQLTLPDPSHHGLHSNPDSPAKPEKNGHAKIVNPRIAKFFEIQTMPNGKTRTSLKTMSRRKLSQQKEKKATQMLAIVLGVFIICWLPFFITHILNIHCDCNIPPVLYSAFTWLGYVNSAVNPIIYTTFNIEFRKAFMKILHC
Measured Parameter: activity at 100 µM (%)

1. CCCCCCCCCCCCCCCC(O)C(CO)NC(=O)C1CC2c3cccc4[nH]cc(c34)CC2N(C)C1 (stereo not drawn) [Product 15, Dihydrolysergyldihydrosphingosine amide]
20
2. CCCCCCCCCCCCCC=CC(O)C(CO)NC(=O)[C@@H]1C=C2c3cccc4[nH]cc(c34)C[C@H]2N(C)C1 (stereo partly drawn) [Product 2.2, Lysergylsphingosine-amide]
35
3. CCCCCCCCCCCCCC=CC(O)C(CO)NC(=O)C1CC2c3cccc4[nH]cc(c34)CC2N(C)C1 (stereo not drawn) [Product 3, Dihydrolysergylsphingosine amide]
10

---

biological target: dopamine receptors (Rattus norvegicus, UniProt P61169); construct: on hypophysis sinaptosomal rat membranes; from tissue; host or cells: rat hypophysis (pituitary), synaptosomal membranes; assay: Binding of (^3H)-spiroperidole to hypophysis membranes of rat; conditions: read-out: Product bound % ((^3H) spiroperidole binding to hypophysis membranes), (^3H) spiroperidole 2.10^-9 M (2 nM); test substance 10^-6 M
Measured Parameter: activity at 1 µM (%)

1) CCCCCCCCCCCCC/C=C/[C@@H](O)[C@@H](N)CO [sphingosine]
100
2) CCCCCCCCCCCCCC=CC(O)C(CO)NC(=O)C1CC2c3cccc4[nH]cc(c34)CC2N(C)C1 (stereo not shown) [Product 3, Dihydrolysergylsphingosine amide]
90
3) CN1C[C@H](C(=O)O)CC2c3cccc4[nH]cc(c34)C[C@H]21 (stereo partly shown) [dihydrolysergic acid]
100
4) CCCCCCCCCCCCCC=CC(O)C(COC1OC(CO)C(O)C(O)C1O)NC(=O)C1CC2c3cccc4[nH]cc(c34)CC2N(C)C1 (stereo not shown) [Product 16, Dihydrolysergylpsychosine amide]
80
